Data provenance is ChEMBL document CHEMBL5579820.

pIC50 tested on Acetylcholinesterase (Homo sapiens): recorded values
Sequence (P22303 whole entry): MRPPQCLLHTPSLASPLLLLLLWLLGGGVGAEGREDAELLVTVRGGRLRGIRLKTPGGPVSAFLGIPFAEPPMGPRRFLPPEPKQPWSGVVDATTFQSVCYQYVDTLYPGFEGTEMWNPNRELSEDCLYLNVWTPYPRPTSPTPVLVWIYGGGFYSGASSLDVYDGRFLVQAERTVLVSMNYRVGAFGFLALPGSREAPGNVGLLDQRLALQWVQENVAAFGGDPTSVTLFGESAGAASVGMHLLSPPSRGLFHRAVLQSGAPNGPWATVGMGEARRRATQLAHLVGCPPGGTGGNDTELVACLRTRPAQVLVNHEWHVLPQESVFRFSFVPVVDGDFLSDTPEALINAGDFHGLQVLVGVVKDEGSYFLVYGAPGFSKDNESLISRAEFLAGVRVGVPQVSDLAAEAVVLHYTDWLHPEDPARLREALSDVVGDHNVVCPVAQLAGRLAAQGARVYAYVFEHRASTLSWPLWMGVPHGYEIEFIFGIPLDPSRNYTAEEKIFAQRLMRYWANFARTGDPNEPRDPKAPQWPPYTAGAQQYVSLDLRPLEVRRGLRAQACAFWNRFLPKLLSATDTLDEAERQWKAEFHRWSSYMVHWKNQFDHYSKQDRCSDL
pIC50: −log10 of the molar value.

See these solved cases before continuing.
Structure notation	Reported property	Result
COc1cccc(NC(=O)CN(C)[C@@H](C)C(=O)c2c[nH]c3ccccc23)c1	pIC50	< 4.00
CCNC(=S)N/N=C/c1c(OC)cc(OC)c2c(-c3ccccc3)c[nH]c12	pIC50	4.23

Give pIC50; test system Acetylcholinesterase (Homo sapiens); compound `CCc1ccccc1NC(=O)c1ccc(NS(=O)(=O)c2ccccc2)cc1`
< 4.30

Give pIC50; test system Acetylcholinesterase (Homo sapiens); compound `CCc1[nH]c2ccccc2c1CCN1CCC[C@H](CC)C1`
< 4.00

###

Target: UniProt P06276
Sequence (P06276 whole entry): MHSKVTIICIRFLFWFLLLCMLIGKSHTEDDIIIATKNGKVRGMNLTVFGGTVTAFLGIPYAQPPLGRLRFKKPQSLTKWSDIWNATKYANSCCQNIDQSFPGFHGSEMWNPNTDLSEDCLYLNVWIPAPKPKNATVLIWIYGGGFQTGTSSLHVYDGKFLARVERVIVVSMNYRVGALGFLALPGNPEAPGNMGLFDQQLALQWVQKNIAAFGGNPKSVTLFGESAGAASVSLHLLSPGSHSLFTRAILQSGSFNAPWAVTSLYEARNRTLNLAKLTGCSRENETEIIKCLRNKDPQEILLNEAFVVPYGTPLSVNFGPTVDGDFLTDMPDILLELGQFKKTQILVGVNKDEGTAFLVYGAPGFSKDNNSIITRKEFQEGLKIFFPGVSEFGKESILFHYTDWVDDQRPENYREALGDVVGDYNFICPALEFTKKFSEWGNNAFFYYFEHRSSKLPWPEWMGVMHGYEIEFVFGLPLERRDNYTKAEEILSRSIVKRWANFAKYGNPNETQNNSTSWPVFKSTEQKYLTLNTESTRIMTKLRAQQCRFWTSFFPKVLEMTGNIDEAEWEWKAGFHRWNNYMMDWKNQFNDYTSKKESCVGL
Assay: Inhibition of BChE (unknown origin)
Reported property: IC50 (nM)
Kindly answer with a numeric value in nM, unit omitted.

Structure notation	Measurement target	IC50 [nM]
Cc1ccc(/C=N/NC(=O)Cn2c(=O)sc3ccccc32)s1	UniProt P06276	1380

Pending compound:
Return IC50 (reported value) for this compound: `COc1cc(CNCCCNc2c3c(nc4ccccc24)CCCCC3)ccc1O`
357

###

Target: Protein deacetylase HDAC6 (Homo sapiens)
Sequence (Q9UBN7 whole entry): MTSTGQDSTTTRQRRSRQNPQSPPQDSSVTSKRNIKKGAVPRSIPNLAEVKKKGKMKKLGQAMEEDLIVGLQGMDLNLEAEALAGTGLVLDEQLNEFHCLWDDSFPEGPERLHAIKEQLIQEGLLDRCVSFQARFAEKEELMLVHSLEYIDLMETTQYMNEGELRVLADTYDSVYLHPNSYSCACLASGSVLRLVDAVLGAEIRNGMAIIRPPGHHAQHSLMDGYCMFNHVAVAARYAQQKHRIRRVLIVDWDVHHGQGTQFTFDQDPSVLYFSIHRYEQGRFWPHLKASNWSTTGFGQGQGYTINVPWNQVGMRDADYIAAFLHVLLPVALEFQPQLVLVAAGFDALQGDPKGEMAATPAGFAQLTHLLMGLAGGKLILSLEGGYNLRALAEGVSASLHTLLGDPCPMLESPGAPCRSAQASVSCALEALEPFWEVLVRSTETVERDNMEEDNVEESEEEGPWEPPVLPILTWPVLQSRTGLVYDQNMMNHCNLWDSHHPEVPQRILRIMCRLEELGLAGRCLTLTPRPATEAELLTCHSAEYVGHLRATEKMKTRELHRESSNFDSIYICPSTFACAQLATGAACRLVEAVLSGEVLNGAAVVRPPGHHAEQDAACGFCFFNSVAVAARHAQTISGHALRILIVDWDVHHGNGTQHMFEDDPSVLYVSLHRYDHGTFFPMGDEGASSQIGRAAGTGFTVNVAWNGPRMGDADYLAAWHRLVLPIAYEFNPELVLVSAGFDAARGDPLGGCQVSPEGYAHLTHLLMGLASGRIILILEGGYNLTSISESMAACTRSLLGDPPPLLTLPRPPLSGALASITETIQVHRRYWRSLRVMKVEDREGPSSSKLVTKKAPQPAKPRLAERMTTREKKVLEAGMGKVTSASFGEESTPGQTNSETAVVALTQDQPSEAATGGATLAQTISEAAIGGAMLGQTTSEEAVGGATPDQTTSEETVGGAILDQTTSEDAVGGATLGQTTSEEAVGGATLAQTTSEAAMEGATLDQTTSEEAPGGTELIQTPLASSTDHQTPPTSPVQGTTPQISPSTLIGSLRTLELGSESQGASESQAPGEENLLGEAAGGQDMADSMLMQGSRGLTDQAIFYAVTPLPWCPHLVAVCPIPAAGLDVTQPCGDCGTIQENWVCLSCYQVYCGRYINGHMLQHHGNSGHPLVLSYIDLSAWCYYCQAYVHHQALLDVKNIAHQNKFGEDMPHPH
Form field: IC50 (one value per entry).
Kindly answer with a numeric value in nM, unit omitted.

Structure notation	Reported property	Value unit	Result
CCN(CC)Cc1ccccc1CNC(=O)c1cccc(NC(=O)c2cccc(C(=O)NO)c2)c1	IC50	nM	71

Return IC50 (reported value) for this compound: `CCN(CC)Cc1ccccc1CNC(=O)c1cccc(NC(=O)c2cccc(NC(=O)CCCCCCC(=O)NO)c2)c1`
8.9
